Tested on: CD8+ T cells
procedure details: T cell IFNγ secretion assay
Assay type: cell-based, mouse
test settings: Mus musculus, T-cell, read-out: EC50 restoration of IFN-γ secretion, 0.1 µM NECA
quantity name: pEC50
Numbers only, as −log10 of the molar value.

Measured pEC50, Cc1cc(-c2nnc(N)nc2-c2ccc(F)cc2)cc(Cl)n1 [AZD4635] : 7.28
